Test system: NCI-H522 lung
Assay: NCI-60 one-dose screen, 48 h
Settings: 10 µM unless noted
About 83,000 compounds went through this panel and 20% of them were active in at least one assay; those are over-represented in the sample as a whole. The source made the active and inactive calls. How the source made its calls: active means growth percent below 10; inactive means the rest.
Could you please pick one outcome from this set? t for active, f for inactive

Solved entries (count: 8):
COC(=O)c1ccc(CSc2nnc(-c3ccncc3)o2)cc1 ... f
CCOc1ccc2nc(-c3cccc(OCC(=O)NC(C)C)c3)nc(Nc3ccc(-c4cn[nH]c4)cc3)c2c1 ... t
Nc1c(-c2nc3ccccc3c(=O)[nH]2)nnn1-c1ccc(Cl)cc1 ... f
CN(C)c1ccc(C#Cc2c(F)cccc2Cl)cc1 ... f
COc1cc(/C=C/c2nc(Nc3ccc(S(=O)(=O)Nc4cc(C)on4)cc3)c3ccccc3n2)ccc1O ... f
Cc1c(C)c2c(c(C)c1NC(=O)/C=C\C(=O)O)CCC(C)(CCCC(C)CCCC(C)CCCC(C)C)O2 (centres undefined) ... f
COc1ccc(-c2cc(-c3cc(OC)ccc3O)[nH]c(=O)c2C#N)cc1 ... f
Cn1cc(-c2ccc3ncc(-c4ccc(CC(=O)Nc5cc(C(C)(C)C)nn5C)cc4)cc3c2)cn1 ... t

Attention now shifts to the item below.
What did the test return for COC(=O)CNC(=O)C(=O)c1c(O)c(O)c(C(C)C)c2cc(C)c(-c3c(C)cc4c(C(C)C)c(O)c(O)c(C(=O)C(=O)NCC(=O)OC)c4c3O)c(O)c12 ?
t

The measurements presented in this section are drawn from PubChem BioAssay (NCI).
